# Test system: NCI-H226
# measurementDescription: Growth inhibition of human NCI-H226 cells after 48 hrs by sulforhodamine B assay
# Type: functional
# appliedConditions: NCI-H226, 48 h
measuredMetric: GI50 (µM)
Enter your answer as a number in µM; do not include the unit.

Field: example entries. Status: answers known.
COc1cc(/C=C/c2cc(O)c3c(c2)C[C@@H]2C(C)(C)[C@H](O)CC[C@@]2(C)O3)cc(O)c1C/C=C(\C)CCC=C(C)C; 5.89
COc1cc(/C=C/c2ccc3c(c2)C[C@@H]2C(C)(C)[C@H](O)CC[C@@]2(C)O3)cc(O)c1C/C=C(\C)CCC=C(C)C; 22.9
COCOc1cc(/C=C/c2cc(CO)c3c(c2)C[C@@H]2C(C)(C)[C@H](O)CC[C@@]2(C)O3)cc(OC)c1C/C=C(\C)CCC=C(C)C; 14.5

Notebook: pull reported GI50 for NCI-H226, entry COCOc1cc(/C=C/c2cc(C=O)c3c(c2)C[C@@H]2C(C)(C)[C@H](O)CC[C@@]2(C)O3)cc(OC)c1C/C=C(\C)CCC=C(C)C 28.2

# returns recorded GI50 (system: NCI-H226) for COc1cc(/C=C/c2cc3c(c(SC)c2)O[C@]2(C)CC[C@@H](O)C(C)(C)[C@H]2C3)cc(O)c1C/C=C(\C)CCC=C(C)C 15.1

Write down the reported GI50 of COc1cc(/C=C/c2cc(F)c3c(c2)C[C@@H]2C(C)(C)[C@H](O)CC[C@@]2(C)O3)cc(O)c1C/C=C(\C)CCC=C(C)C , test system: NCI-H226. 18.6

Reported GI50 for NCI-H226, given COc1cc(/C=C/c2cc3c(c(OC)c2)O[C@]2(C)CC[C@@H](O)C(C)(C)[C@H]2C3)cc(O)c1C/C=C(\C)CCC=C(C)C ? 5.89
